Tested on: human embryonic stem cell line HS420
Assay: Dopaminergic differentiation of hESC with ALK inhibitors in the 3D-AirLiwell protocol, q-PCR after 2 and 4 weeks
Type: cell-based
Details: HS420, 3D-AirLiwell; exposed from day 0 during one week at 0.2 M and 0.8 M; q-PCR at 2 and 4 weeks
Outcome measure: effect on dopaminergic differentiation, compared to LDN/SB

Sample smiles: Cc1cccc(-c2nn(C(=S)Nc3ccccc3)cc2-c2ccnc3ccccc23)n1
Measurement target: human embryonic stem cell line HS420
Value measured: no major effects
--
Sample smiles: COc1cc(-c2cc(-c3cccc(O)c3)cnc2N)cc(OC)c1OC
Measurement target: human embryonic stem cell line HS420
Value measured: no major effects
